Value source: ChEMBL document CHEMBL1268835

- protocolText: Metabolic stability of the compound in ICR mouse liver microsome assessed as compound remaining at 1 uM
- Type: ADME
- condition: liver microsomes, read-out: Stability
measuredProperty: remaining at 1 µM (%)

INSERT INTO assay_data (structure, reportedvalue) VALUES
  ('O=C(CCC1=CCCN(Cc2cccc(Cl)c2)C1=O)NO', 40.3),
  ('Cc1ccc(CCCCN2CCC=C(CCC(=O)NO)C2=O)cc1', 5.7);

[1] O=C(CCC1=CCCN(Cc2ccc(Br)cc2F)C1=O)NO
[2] CC(C)(C)c1ccc(CCCN2CCC=C(CCC(=O)NO)C2=O)cc1
[3] CN(C)CCCN1c2ccccc2Sc2ccc(Cl)cc21
# ascending order, key=remaining at 1 µM Output spec: labels arranged per the requested ranking.
2, 1, 3
